# System Under Test: recombinant Plk1 (Homo sapiens)
# Construct: The full-length Plk1 protein is expressed in insect cells as an N-terminal 6His tag fusion; 6His (N); made in house; host or cells: insect cells (Plk1); E. coli (GST-Cdc25C substrate)
# Sequence (P53350 whole entry, the tested form may be a part): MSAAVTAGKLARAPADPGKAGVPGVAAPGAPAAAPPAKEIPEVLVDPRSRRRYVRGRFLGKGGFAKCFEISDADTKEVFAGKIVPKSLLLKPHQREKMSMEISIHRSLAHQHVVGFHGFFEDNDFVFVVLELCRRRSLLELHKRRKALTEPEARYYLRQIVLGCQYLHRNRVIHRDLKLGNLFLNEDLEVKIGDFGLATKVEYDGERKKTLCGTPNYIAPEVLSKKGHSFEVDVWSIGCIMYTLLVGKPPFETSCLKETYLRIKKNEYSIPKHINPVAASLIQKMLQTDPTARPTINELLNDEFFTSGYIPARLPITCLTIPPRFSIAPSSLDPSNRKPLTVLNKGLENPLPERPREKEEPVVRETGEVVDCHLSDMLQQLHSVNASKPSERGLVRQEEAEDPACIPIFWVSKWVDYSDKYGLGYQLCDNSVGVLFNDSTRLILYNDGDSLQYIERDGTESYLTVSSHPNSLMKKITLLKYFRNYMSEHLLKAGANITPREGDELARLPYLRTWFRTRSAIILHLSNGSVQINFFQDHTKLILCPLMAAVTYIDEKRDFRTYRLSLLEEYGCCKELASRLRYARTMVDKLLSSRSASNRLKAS
# Measurement Protocol: In vitro Plk1 enzyme assay (SPA)
# Format: biochemical
# Run Parameters: Plk1 enzyme, class symbols for IC50; read-out: Kinase Inhibition
Hi there, I'd appreciate the recorded IC50 for every entry that follows.

-- ask Reported IC50 for `CC[C@@H]1CN(C)c2cnc(Nc3ccc(CNCC(C)(C)CN(C)C)cc3OC)nc2N1C1CCCC1` : what is it?
-- reply 6 to 15 µM

-- ask Likewise for `CC[C@@H]1CN(CC)c2cnc(Nc3ccc(C(=O)NC4CCN(C)CC4)cc3OC)nc2N1C1CCCC1` ?
-- reply < 3 µM

-- ask Likewise for `CCOc1cc(C(=O)NC2CCN(C)CC2)ccc1Nc1ncc2c(n1)N(C1CCCC1)[C@H](CC)CN2C` ?
-- reply < 3 µM

-- ask Likewise for `CC[C@@H]1CN(C)c2cnc(Nc3ccc(C(=O)NCC(C)(C)CN(C)C)cc3OC)nc2N1C1CCCC1` ?
-- reply < 3 µM

-- ask Likewise for `COc1cc(C(=O)NC2CCN(C)CC2)ccc1Nc1ncc2c(n1)N(C1CCCC1)[C@H](C1CC1)CN2C` ?
-- reply < 3 µM

-- ask Likewise for `CCC[C@@H]1CN(C)c2cnc(Nc3ccc(C(=O)NC4CCN(C)CC4)cc3OC)nc2N1C1CCCC1` ?
-- reply < 3 µM

-- ask Likewise for `CC[C@@H]1CN(C)c2cnc(Nc3ccc(C(=O)NC4CCN(C)CC4)cc3OC)nc2N1C1CCCC1` ?
-- reply < 3 µM

-- ask Likewise for `CC[C@@H]1CN(C)c2cnc(Nc3ccc(CNC4CCN(C)CC4)c(F)c3)nc2N1C1CCCC1` ?
-- reply 3 to 6 µM

* * *

# System Under Test: recombinant Plk1 (Homo sapiens)
# Construct: The full-length Plk1 protein is expressed in insect cells as an N-terminal 6His tag fusion; 6His (N); made in house; host or cells: insect cells (Plk1); E. coli (GST-Cdc25C substrate)
# Measurement Protocol: In vitro Plk1 enzyme assay (SPA)
# Type: biochemical
# Run Parameters: Plk1 enzyme assay; read-out: IC50 value in the enzyme assay
Reported Endpoint: pIC50
Give only the number. pIC50 is defined as minus log10 of concentration in molar units.

-- ask So what pIC50 did `COc1cc(C(=O)NC2CCN(C)CC2)ccc1Nc1ncc2c(n1)N(C1CCCC1)[C@H](C1CC1)CN2C` get with recombinant Plk1 (Homo sapiens)?
-- reply 6.16

Values compiled from patent US20090312336A1.
